assay.summary: soluble fraction after stress (log2 fold change); higher = more stays soluble; pooled small domains, quantitative proteomics;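 also: 20 min heating vs room temperature control held 20 min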
assay.context: stress: 75 degC
So I've got a bunch of sequences here, and I need their soluble fraction (log2) values.

# soluble fraction (log2) of HMYIEKTAYINDTAVNVRKSATTDSDVIKVLALNTEITIIGEENDWYKVKSGNDIGYIAKRLVSDQKKE = -0.187

# soluble fraction (log2) of HMTSVAYVIDRINKIQNVYSELEALGLKDEFEKILSNIEDLSKKDIREIKTLLKTKGVIKNLDDLNVKL = 0.762

# soluble fraction (log2) of HMKHFFIIAGGKIEDAFAIEVLKGFAEKTVIAADSGMEFLRRNEIVPQVIIGDFDSVSKETLEWFQKK = -0.751

# soluble fraction (log2) of HMSTMLPFVMRELVELVMKKKALPLGDALYYIYSSKLYKSLLDKSTKLWYSSTLSLYETLEKEKTEEKRRY = -2.04

# soluble fraction (log2) of HMPKELAPYDILARYYLTVNNSKQSIALLEQYLDKAGSAPAALKAKLLLAGILYPSGNKERAEKLVEEVIK = -0.463

# soluble fraction (log2) of HMVSVLGRRIKELRLQNSMTQMQLAKKLGYKGNSLVAGWELGKNYPSVSSIKRLSEIFDTDLMKYVG = -2.53

# soluble fraction (log2) of HMRMSPRERKIYQFIENHPGTKSGEMAEKLGIPLPTIKRLLSDMVASKLLQKHGTGAGTNYSIEE = 0.43

# soluble fraction (log2) of HMEPQSRTAYRLIEAMIVTHELPPGSRISEASLSAKLGIGRTPIREALQRLSFEGTVKIVPRSGAFVSEI = -2.78

# soluble fraction (log2) of HMSGEPVKSTLPGNVFKILVAVGDSVKKGQRMFVLEAMKMEIDVNAPKDGLVTSIEVQQGQTVANGQILAK = -0.0981

# soluble fraction (log2) of HMDEEAIELTQEVMKLPPKQREVILLYYYHGLTGKEIAKALGISGAAVSKRLKQAKNQLHFALK = -0.282

# soluble fraction (log2) of HMFDLSQRQEQIIEIVRKHGPITGEKIADLLYVTRAALRPDLAILTMSGYLEAKPRVGYTYK = -1.64

# soluble fraction (log2) of HMQERTVVKGVVVQVSRDEAYVDIGYKQEIPVSKRDLAVPAPDDARDVVKVGDEIDVYIKSLGGDNGG = 0.109
